# Tested on: 60 different human tumor cell lines
# EXPERIMENTAL_SETUP: read-out: LC50; M14 (Melanoma), five dose
TEST_READOUT: CC50 (µM)

| CHEMICAL_SMILES | UNIT_OF_MEASURE | BOUND_TYPE | MEASURED |
| --- | --- | --- | --- |
| C[C@]12CCc3nc(Nc4ccc(O)cc4)sc3C1=CC[C@@H]1[C@@H]2CC[C@]2(C)C(=O)CC[C@@H]12 | µM | > | 100 |
| C[C@]12CCc3nc(N)sc3C1=CC[C@@H]1[C@@H]2CC[C@]2(C)C(=NNC(N)=O)CC[C@@H]12 | µM | = | 7.31 |

* * *

# maps each entry to its CC50
# Tested on: glioblastoma (SF-295)
# PROCEDURE_DETAILS: NCI 60 five dose screen
# EXPERIMENTAL_SETUP: read-out: LC50; SF-295 (CNS Cancer), five dose
TEST_READOUT: CC50 (µM)

| COMPOUND | TEST_READOUT | BOUND_TYPE | MEASURED |
| --- | --- | --- | --- |
| C[C@]12CCc3nc(N)sc3C1=CC[C@@H]1[C@@H]2CC[C@]2(C)C(=NNC(N)=O)CC[C@@H]12 [IVb.1] | CC50 | = | 5.71 |
| C[C@]12CCc3nc(Nc4ccc(O)cc4)sc3C1=CC[C@@H]1[C@@H]2CC[C@]2(C)C(=O)CC[C@@H]12 [IIa.35] | CC50 | > | 100 |

* * *

# maps each entry to its GI50
# Test system: 60 different human tumor cell lines
# PROCEDURE_DETAILS: cells
# EXPERIMENTAL_SETUP: TK-10

| MOLECULE | GI50 |
| --- | --- |
| C[C@]12CCc3sc(NCCc4ccccc4)nc3C1=CC[C@@H]1[C@@H]2CC[C@]2(C)C(=O)CC[C@@H]12 [IIa.2] | 4.15 µM |
| C[C@]12CCc3sc(Nc4cccc(O)c4)nc3C1=CC[C@@H]1[C@@H]2CC[C@]2(C)C(=O)CC[C@@H]12 [IIa.17] | 7.47 µM |
| C[C@]12CCc3sc(Nc4ccc(F)cc4F)nc3C1=CC[C@@H]1[C@@H]2CC[C@]2(C)C(=O)CC[C@@H]12 [IIa.10] | 2.8 µM |
| C[C@]12CC[C@H]3[C@@H](CC=C4c5sc(-c6ccc(O)cc6)nc5CC[C@@]43C)[C@@H]1CC[C@@H]2O [III.5] | > 100 µM |
| C[C@]12CC[C@H]3[C@@H](CC=C4c5sc(Nc6ccccc6)nc5CC[C@@]43C)[C@@H]1CC[C@@H]2O [IIIa.10] | 2.91 µM |

* * *

# System: SK-MEL-25
# PROCEDURE_DETAILS: Melanoma cytotoxicity assay (resazurin)
# Assay type: cell-based
# EXPERIMENTAL_SETUP: human, 24 h
# Experimental: Cytotoxicity Assay: Melanoma cells (˜4000 cells in each well) were incubated in a 96 well plates at 37° C. in 5% CO2 for 24 hours. Compounds were added in triplicates and the plate was further incubated for 24 hours. […] Next day resazurin was added and the plate was further incubated for 6 hours followed by reading the plate at 544 nm (excitation) and 590 nm (emission) using BMG Labtech Fluostar Optima plate reader. IC50 values were determined by using Graphpad Prism. […]
TEST_READOUT: SK-MEL-25 (% viability) (%)

| CHEMICAL_SMILES | TESTED_TARGET | MEASURED |
| --- | --- | --- |
| C[C@]12CC[C@H]3[C@@H](CC=C4c5sc(Nc6ccc(F)cc6F)nc5CC[C@@]43C)[C@@H]1CC[C@@H]2O | SK-MEL-25 | 8.72 |
| CNc1nc2c(s1)C1=CC[C@H]3[C@@H]4CC[C@H](O)[C@@]4(C)CC[C@@H]3[C@@]1(C)CC2 | SK-MEL-25 | 6.21 |
| C[C@]12CC[C@H]3[C@@H](CC=C4c5sc(Nc6ccccc6[N+](=O)[O-])nc5CC[C@@]43C)[C@@H]1CC[C@@H]2O | SK-MEL-25 | 26.7 |

* * *

# Tested on: 60 different human tumor cell lines
# EXPERIMENTAL_SETUP: read-out: LC50; 786-0 (Renal Cancer), five dose
TEST_READOUT: CC50 (µM)

| COMPOUND | UNIT_OF_MEASURE | MEASURED |
| --- | --- | --- |
| C[C@]12CCc3nc(N)sc3C1=CC[C@@H]1[C@@H]2CC[C@]2(C)C(=NNC(N)=O)CC[C@@H]12 [IVb.1] | µM | 5.96 |

* * *

# System: 60 different human tumor cell lines
# PROCEDURE_DETAILS: cells
# EXPERIMENTAL_SETUP: HOP-62, read-out: LC50
# maps each entry to its CC50
TEST_READOUT: CC50

| CHEMICAL_SMILES | MEASURED |
| --- | --- |
| C[C@]12CCc3sc(Nc4cccc(O)c4)nc3C1=CC[C@@H]1[C@@H]2CC[C@]2(C)C(=O)CC[C@@H]12 | > 100 µM |
| C[C@]12CC[C@H]3[C@@H](CC=C4c5sc(-c6ccc(O)cc6)nc5CC[C@@]43C)[C@@H]1CC[C@@H]2O | > 100 µM |
| C[C@]12CCc3sc(Nc4ccc(F)cc4F)nc3C1=CC[C@@H]1[C@@H]2CC[C@]2(C)C(=O)CC[C@@H]12 | > 100 µM |
| C[C@]12CC[C@H]3[C@@H](CC=C4c5sc(Nc6ccccc6)nc5CC[C@@]43C)[C@@H]1CC[C@@H]2O | > 100 µM |
| C[C@]12CCc3sc(Nc4ccc(OC(F)(F)F)cc4)nc3C1=CC[C@@H]1[C@@H]2CC[C@]2(C)C(=O)CC[C@@H]12 | 9.14 µM |
| C[C@]12CCc3sc(NCCc4ccccc4)nc3C1=CC[C@@H]1[C@@H]2CC[C@]2(C)C(=O)CC[C@@H]12 | > 100 µM |

* * *

# System: 60 different human tumor cell lines
# EXPERIMENTAL_SETUP: HOP-92 (Non-small Cell Lung Cancer), five dose

| CHEMICAL_SMILES | TGI |
| --- | --- |
| C[C@]12CCc3sc(Nc4cccc(O)c4)nc3C1=CC[C@@H]1[C@@H]2CC[C@]2(C)C(=O)CC[C@@H]12 | 6.79E−5 |
| C[C@]12CCc3nc(Nc4ccc(O)cc4)sc3C1=CC[C@@H]1[C@@H]2CC[C@]2(C)C(=O)CC[C@@H]12 | 5.65E−6 |
| C[C@]12CCc3sc(NCCc4ccccc4)nc3C1=CC[C@@H]1[C@@H]2CC[C@]2(C)C(=O)CC[C@@H]12 | 9.10E−6 |
| C[C@]12CC[C@H]3[C@@H](CC=C4c5sc(Nc6ccccc6)nc5CC[C@@]43C)[C@@H]1CC[C@@H]2O | 6.77E−6 |
| C[C@]12CCc3nc(N)sc3C1=CC[C@@H]1[C@@H]2CC[C@]2(C)C(=NNC(N)=O)CC[C@@H]12 | 3.16E−6 |
| C[C@]12CCc3sc(Nc4ccc(OC(F)(F)F)cc4)nc3C1=CC[C@@H]1[C@@H]2CC[C@]2(C)C(=O)CC[C@@H]12 | 3.44E−6 |

* * *

# System: 60 different human tumor cell lines
# PROCEDURE_DETAILS: NCI Development Therapeutics Program 60 cell line screen, one dose
# Assay type: cell-based
# EXPERIMENTAL_SETUP: Melanoma, SK-MEL-28
# maps each entry to its Growth Percent

| CHEMICAL_SMILES | UNIT_OF_MEASURE | Growth Percent |
| --- | --- | --- |
| C[C@]12CCc3sc(Nc4ccc(F)cc4F)nc3C1=CC[C@@H]1[C@@H]2CC[C@]2(C)C(=O)CC[C@@H]12 | % | 84.36 |
| C[C@]12CC[C@H]3[C@@H](CC=C4c5sc(Nc6ccccc6)nc5CC[C@@]43C)[C@@H]1CC[C@@H]2O | % | 27.28 |
| C[C@]12CCc3sc(Nc4ccc(OC(F)(F)F)cc4)nc3C1=CC[C@@H]1[C@@H]2CC[C@]2(C)C(=O)CC[C@@H]12 | % | 65.29 |
| C[C@]12CC[C@H]3[C@@H](CC=C4c5sc(-c6ccc(O)cc6)nc5CC[C@@]43C)[C@@H]1CC[C@@H]2O | % | 53.31 |
| C[C@]12CCc3sc(Nc4cccc(O)c4)nc3C1=CC[C@@H]1[C@@H]2CC[C@]2(C)C(=O)CC[C@@H]12 | % | 41.25 |
| C[C@]12CCc3nc(N)sc3C1=CC[C@@H]1[C@@H]2CC[C@]2(C)C(=NNC(N)=O)CC[C@@H]12 | % | 13.00 |
| C[C@]12CCc3sc(NCCc4ccccc4)nc3C1=CC[C@@H]1[C@@H]2CC[C@]2(C)C(=O)CC[C@@H]12 | % | 83.31 |
| CN(c1ccccc1)c1nc2c(s1)CC[C@@]1(C)C2=CC[C@@H]2[C@@H]1CC[C@]1(C)C(=O)CC[C@@H]21 | % | 72.19 |
| C[C@]12CCc3nc(Nc4ccc(O)cc4)sc3C1=CC[C@@H]1[C@@H]2CC[C@]2(C)C(=O)CC[C@@H]12 | % | 77.86 |
